# Target of assay: UniProtKB P53667
# Sequence (P53667 285-638): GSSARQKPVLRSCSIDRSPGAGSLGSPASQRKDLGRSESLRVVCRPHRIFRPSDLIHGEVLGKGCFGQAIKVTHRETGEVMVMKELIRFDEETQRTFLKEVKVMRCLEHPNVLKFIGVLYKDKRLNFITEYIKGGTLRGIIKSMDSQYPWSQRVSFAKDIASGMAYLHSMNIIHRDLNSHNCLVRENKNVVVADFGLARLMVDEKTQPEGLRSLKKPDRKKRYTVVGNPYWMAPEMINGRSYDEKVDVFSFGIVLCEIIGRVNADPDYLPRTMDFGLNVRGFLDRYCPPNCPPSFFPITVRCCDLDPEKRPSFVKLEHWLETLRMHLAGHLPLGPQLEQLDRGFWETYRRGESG
# Test details: Limk1 biochemical assay (Reaction Biology, 10-dose IC50)
# Set-up: His; purchased Reaction Biology Corporation; host or cells: insect cells
# Experimental setup: Table 2; means of ≥2 experiments; read-out: IC50 (nM) Limk1
Outcome measure: IC50 (nM)
Numbers only, in nM.

Would you mind telling me what IC50 value was observed for `Cc1c[nH]c2ncnc(-c3ccc(NC(=O)Nc4cccc(C(=O)NC(C)C)c4)c(OCCN(C)C)c3)c12` ? 710

###

# Test details: Plasma pharmacokinetics studies on rats
# Experimental setup: rats; po dosing 2 mg/kg
Rule: 1 for F (%) (po) not less than 20%, 0 for anything less.

Compound: Cc1ccc(N(CCO)C(=O)Nc2ccc(-c3ncnc4[nH]cc(C)c34)cc2)cc1 [Compound 18k]
Label value: 1

Compound: Cc1c[nH]c2ncnc(-c3ccc(NC(=O)N(CCO)c4ccccc4)cc3)c12 [Compound 18b]
Label value: 1

Compound: Cc1c[nH]c2ncnc(-c3ccc(NC(=O)Nc4ccccc4)cc3)c12 [Compound 10a]
Label value: 0

Compound: Cc1c[nH]c2ncnc(-c3ccc(NC(=O)Nc4cccc(C(=O)NC(C)C)c4)c(F)c3)c12
Label value: 0

Compound: Cc1[nH]c2ncnc(-c3ccc(NC(=O)N(CCO)c4ccc(Cl)cc4)c(F)c3)c2c1C [Compound 18s]
Label value: 1

Does F (%) (po) meet or surpass 20% for Cc1c[nH]c2ncnc(-c3ccc(NC(=O)N(CCN(C)C)c4ccc(Cl)cc4)cc3)c12 [Compound 18r] ? 0

Confirm if F (%) (po) reported for the compound Cc1c[nH]c2ncnc(-c3ccc(NC(=O)N(CCO)c4ccccc4Cl)cc3)c12 [Compound 18f] is 20% or above. 1
